Tested on: progesterone receptor (PR)
method: Uterine progesterone receptor levels, hydroxyapatite assay (Example 8)
Format: in vivo, female Sprague-Dawley rats
conditionDetails: compound alone, 150 μmol/kg (17β-estradiol: 2 × 10 μg/rat), run B
Method: The animals were terminated by cervical dislocation. Livers were perfused with ice-cold TEDG buffer (10 mM Tris-HCl, 1.5 mM EDTA-4Na, 1 mM dithiothreitol, 10% glycerol (v/v), pH 7.4). […] Estrogen and progesterone receptor levels were determined within 7 days. Estrogen (ER) and progesterone (PR) receptor levels were determined by the hydroxyapatite assay as described by Clark et al. (J. Steroid Biochem. 16:323-328, 1982) and incorporated herein by reference. […]
Listing of recorded Progesterone Receptor Levels, Cytosolic by entry.
Field: numeric (fmol/mg protein). Do not append units.

# annotated cases, reported Progesterone Receptor Levels, Cytosolic shown
INSERT INTO results (smilesdata, val) VALUES
  ('CCc1cc(Cl)cc2c1oc1cc(Cl)cc(Cl)c12', 688),
  ('CC(C)c1cc(Cl)cc2c1oc1cc(Cl)cc(Cl)c12', 1225),
  ('CCCc1cc(Cl)cc2c1oc1cc(Cl)cc(Cl)c12', 740);

Then this compound:
Give me measured Progesterone Receptor Levels, Cytosolic, please, for this compound: CC(C)(C)c1cc(Cl)cc2c1oc1cc(Cl)cc(Cl)c12
1109

Ref: patent US5516790A
